B1: KLHL14 (parent)
chain: NETGYLSSVECYNLETNEWRYVSS

Variants of: B1
Measurement description: protein stability index of a GFP-peptide fusion (GPS, HEK-293T) (PSI 1-6); higher = more stable;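 note: lentivirally expressed fusions sorted by FACS into six bins by GFP to DsRed ratio, PSI derived from sequencing read proportions per bin multiplied by bin number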
Measurement parameters: c terminus: a fixed tail appended
Decision: protein stability index compared against 3; not below it gives fulfilled, below it gives not fulfilled.

Exercise: Quick check: does "L6R" have protein stability index greater than or equal to 3?
Solution: fulfilled

Exercise: Quick check: does "E15A" have protein stability index greater than or equal to 3?
Solution: not fulfilled

Exercise: Quick check: does "C11Q" have protein stability index greater than or equal to 3?
Solution: fulfilled

Exercise: Quick check: does "N1G" have protein stability index greater than or equal to 3?
Solution: not fulfilled

Exercise: Quick check: does "S24W" have protein stability index greater than or equal to 3?
Solution: fulfilled

Exercise: Quick check: does "W19S" have protein stability index greater than or equal to 3?
Solution: fulfilled

Exercise: Quick check: does "N1T" have protein stability index greater than or equal to 3?
Solution: not fulfilled

Exercise: Quick check: does "Y12S" have protein stability index greater than or equal to 3?
Solution: fulfilled

Exercise: Quick check: does "L14R" have protein stability index greater than or equal to 3?
Solution: fulfilled

Exercise: Quick check: does "T16L" have protein stability index greater than or equal to 3?
Solution: not fulfilled

Exercise: Quick check: does "G4Q" have protein stability index greater than or equal to 3?
Solution: fulfilled

Exercise: Quick check: does "T16Q" have protein stability index greater than or equal to 3?
Solution: fulfilled

Exercise: Quick check: does "E10H" have protein stability index greater than or equal to 3?
Solution: not fulfilled

Exercise: Quick check: does "Y21V" have protein stability index greater than or equal to 3?
Solution: fulfilled

Exercise: Quick check: does "Y5D" have protein stability index greater than or equal to 3?
Solution: fulfilled

Exercise: Quick check: does "Y5H" have protein stability index greater than or equal to 3?
Solution: fulfilled

Exercise: Quick check: does "Y5K" have protein stability index greater than or equal to 3?
Solution: fulfilled

Exercise: Quick check: does "V9L" have protein stability index greater than or equal to 3?
Solution: fulfilled

Exercise: Quick check: does "N13Q" have protein stability index greater than or equal to 3?
Solution: not fulfilled
